- measurement-notes: Selectivity ratio (hNK-2/hNK-3) of the compound
# reported Ratio; entries follow

compound: CC(C)[C@H](NC(=O)c1c(CN2CCN(C(C)C)CC2)c(-c2ccccc2)nc2ccccc12)c1ccccc1
reading-qualifier: =
Ratio: 1.2
//
compound: C[C@H](NC(=O)c1c(CN2CCC(N3CCOCC3)CC2)c(-c2ccccc2)nc2ccccc12)C1CCCCC1
reading-qualifier: =
Ratio: 1
//
compound: C[C@H](NC(=O)c1c(CN2CCNCC2)c(-c2ccccc2)nc2ccccc12)C1CCCCC1
reading-qualifier: =
Ratio: 0.7
//
compound: CCC(CC)NC(=O)c1c(CN2CCN(C(C)C)CC2)c(-c2ccccc2)nc2ccccc12
reading-qualifier: =
Ratio: 0.015
//
compound: CC(C)N1CCN(Cc2c(-c3ccccc3)nc3ccccc3c2C(=O)N[C@@H](C)C2CCCCC2)CC1
reading-qualifier: =
Ratio: 0.4
//
compound: C[C@H](NC(=O)c1c(CN2CCC(N3CCCCC3)CC2)c(-c2ccccc2)nc2ccccc12)C1CCCCC1
reading-qualifier: =
Ratio: 0.3
//
compound: CC(C)NC(=O)c1c(CN2CCN(C(C)C)CC2)c(-c2ccccc2)nc2ccccc12
reading-qualifier: <
Ratio: 0.1
//
compound: C[C@H](NC(=O)c1c(CN2CCC(N3CCCCC3)CC2)c(-c2ccccc2)nc2ccccc12)C(C)(C)C
reading-qualifier: =
Ratio: 0.005
//
compound: CC(C)N1CCN(Cc2c(-c3ccccc3)nc3ccccc3c2C(=O)NC2CCCCC2)CC1
reading-qualifier: =
Ratio: 0.003
//
compound: CC[C@H](NC(=O)c1c(CN2CCN(C(C)C)CC2)c(-c2ccccc2)nc2ccccc12)c1ccccc1
reading-qualifier: =
Ratio: 3.1
//
compound: CC(C)C(=O)N1CCN(Cc2c(-c3ccccc3)nc3ccccc3c2C(=O)N[C@@H](C)C2CCCCC2)CC1
reading-qualifier: =
Ratio: 0.9
//
compound: CC[C@H](NC(=O)c1c(CN2CCC(N3CCCCC3)CC2)c(-c2ccccc2)nc2ccccc12)c1ccccc1
reading-qualifier: =
Ratio: 3.1
//
compound: CC(C)C(C)NC(=O)c1c(CN2CCN(C(C)C)CC2)c(-c2ccccc2)nc2ccccc12 (stereo unspecified)
reading-qualifier: =
Ratio: 0.02
//
compound: CC[C@H](NC(=O)c1c(CN(C)C)c(-c2ccccc2)nc2ccccc12)c1ccccc1
reading-qualifier: =
Ratio: 78
//
compound: CC[C@H](NC(=O)c1c(CN2CCCCC2)c(-c2ccccc2)nc2ccccc12)c1ccccc1
reading-qualifier: =
Ratio: 39
//
compound: C[C@H](NC(=O)c1c(CN2CCOCC2)c(-c2ccccc2)nc2ccccc12)C1CCCCC1
reading-qualifier: =
Ratio: 1.3

---

- tested-target: Mu-type opioid receptor (Homo sapiens, UniProt P35372)
- Sequence (P35372 whole entry): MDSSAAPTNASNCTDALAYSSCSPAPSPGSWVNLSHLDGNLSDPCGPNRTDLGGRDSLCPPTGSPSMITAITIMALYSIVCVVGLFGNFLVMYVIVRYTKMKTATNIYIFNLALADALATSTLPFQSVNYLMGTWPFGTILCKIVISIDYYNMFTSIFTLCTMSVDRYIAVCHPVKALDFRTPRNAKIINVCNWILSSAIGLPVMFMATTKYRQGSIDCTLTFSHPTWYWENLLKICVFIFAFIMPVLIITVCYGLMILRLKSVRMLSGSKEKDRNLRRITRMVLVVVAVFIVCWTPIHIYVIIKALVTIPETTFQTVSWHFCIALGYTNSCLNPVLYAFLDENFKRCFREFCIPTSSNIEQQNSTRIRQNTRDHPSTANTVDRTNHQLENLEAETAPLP
- measurement-notes: Binding affinity towards human mu-opioid receptors in CHO (Chinese hamster ovary) cell lines
quantity-kind: Ki

record-smiles: C[C@H](NC(=O)c1c(CN2CCC(N3CCOCC3)CC2)c(-c2ccccc2)nc2ccccc12)C1CCCCC1
result: > 2500 nM

record-smiles: CC[C@H](NC(=O)c1c(CN2CCCCC2)c(-c2ccccc2)nc2ccccc12)c1ccccc1
result: > 2500 nM

record-smiles: CC(C)C(=O)N1CCN(Cc2c(-c3ccccc3)nc3ccccc3c2C(=O)N[C@@H](C)C2CCCCC2)CC1
result: > 2500 nM

record-smiles: C[C@H](NC(=O)c1c(CN2CCOCC2)c(-c2ccccc2)nc2ccccc12)C1CCCCC1
result: > 2500 nM

record-smiles: C[C@H](NC(=O)c1c(CN2CCC(N3CCCCC3)CC2)c(-c2ccccc2)nc2ccccc12)C(C)(C)C
result: ≥ 2000 nM

record-smiles: CC(C)[C@H](NC(=O)c1c(CN(C)C)c(-c2ccccc2)nc2ccccc12)c1ccccc1
result: > 2500 nM

The measurements presented in this section are drawn from ChEMBL document CHEMBL1134438.
